Assayed target: UniProtKB O95271
Sequence (O95271 whole entry): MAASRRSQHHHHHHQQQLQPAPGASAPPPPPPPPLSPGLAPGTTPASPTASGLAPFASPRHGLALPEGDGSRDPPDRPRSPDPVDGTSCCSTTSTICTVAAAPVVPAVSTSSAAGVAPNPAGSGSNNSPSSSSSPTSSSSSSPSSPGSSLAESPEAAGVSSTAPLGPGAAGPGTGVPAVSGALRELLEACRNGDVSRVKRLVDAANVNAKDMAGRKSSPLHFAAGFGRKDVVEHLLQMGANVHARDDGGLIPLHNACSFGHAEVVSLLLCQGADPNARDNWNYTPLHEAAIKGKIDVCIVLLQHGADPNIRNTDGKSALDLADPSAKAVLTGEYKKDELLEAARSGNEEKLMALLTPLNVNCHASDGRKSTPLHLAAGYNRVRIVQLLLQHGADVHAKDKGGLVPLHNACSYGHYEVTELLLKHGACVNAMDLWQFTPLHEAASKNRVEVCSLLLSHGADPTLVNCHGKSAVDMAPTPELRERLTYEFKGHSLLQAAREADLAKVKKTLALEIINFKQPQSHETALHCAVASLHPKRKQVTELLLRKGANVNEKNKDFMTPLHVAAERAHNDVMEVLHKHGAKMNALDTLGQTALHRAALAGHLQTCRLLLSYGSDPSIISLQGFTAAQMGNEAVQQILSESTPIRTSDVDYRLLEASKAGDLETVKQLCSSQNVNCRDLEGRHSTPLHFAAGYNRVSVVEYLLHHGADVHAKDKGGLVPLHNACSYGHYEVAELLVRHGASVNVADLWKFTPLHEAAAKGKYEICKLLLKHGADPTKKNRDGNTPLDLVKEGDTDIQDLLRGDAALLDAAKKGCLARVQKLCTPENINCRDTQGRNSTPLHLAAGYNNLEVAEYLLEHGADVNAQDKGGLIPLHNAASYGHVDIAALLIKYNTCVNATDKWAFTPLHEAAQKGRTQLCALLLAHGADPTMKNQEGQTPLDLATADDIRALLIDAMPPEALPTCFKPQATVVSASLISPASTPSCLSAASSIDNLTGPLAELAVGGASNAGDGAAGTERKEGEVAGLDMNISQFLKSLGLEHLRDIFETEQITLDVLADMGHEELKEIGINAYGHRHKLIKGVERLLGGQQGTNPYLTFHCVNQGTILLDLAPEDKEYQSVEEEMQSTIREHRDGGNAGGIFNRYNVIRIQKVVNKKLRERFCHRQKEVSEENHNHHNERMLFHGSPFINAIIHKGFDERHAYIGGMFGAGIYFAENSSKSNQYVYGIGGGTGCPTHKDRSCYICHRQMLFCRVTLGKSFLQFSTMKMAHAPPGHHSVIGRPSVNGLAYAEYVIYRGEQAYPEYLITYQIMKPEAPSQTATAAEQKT
Protocol: Modified TNKS1 Assay 2 (auto-parsylation, [3H]-NAD+ SPA)
Assay type: biochemical
Condition notes: 6 nM TNKS1, 96 well
pIC50: −log10 of the molar value.
Test readout: pIC50

> print(dat)
                                    molecule  measured.value
 1  O=C(Nc1ccc(NC(=O)c2nc[nH]c2C(=O)NCC2CCOCC2)cc1)c1ccc(F)cc1Cl [Example 397]            6.62
 2  CNC(=O)c1nc[nH]c1C(=O)Nc1ccc(NC(=O)c2c(F)ccc(F)c2Cl)cc1 [Example 374]            5.80
 3  CCNC(=O)c1nc[nH]c1C(=O)Nc1ccc(NC(=O)c2ccc(OCC)cc2Cl)cc1 [Example 259]            6.52
 4  CNC(=O)c1nc[nH]c1C(=O)Nc1ccc(NC(=O)c2ccc(F)cc2Cl)c(OC)c1 [Example 95]            7.10
 5  CC1CCN(CC(C)(C)NC(=O)c2[nH]cnc2C(=O)Nc2ccc(NC(=O)c3ccc(F)cc3Cl)cc2)CC1 [Example 155]            7.22
 6  CNC(=O)c1nc[nH]c1C(=O)Nc1ccc(NC(=O)c2ccc(F)cc2I)cc1 [Example 61]            7.52
 7  CC(CN1CCOCC1)NC(=O)c1[nH]cnc1C(=O)Nc1ccc(NC(=O)c2ccc(F)cc2Cl)cc1 (single isomer, unassigned; enantiomer 2) [Example 270]            8.40
 8  CCNC(=O)c1nc[nH]c1C(=O)Nc1ccc(NC(=O)c2cccc(OC)c2Cl)cc1 [Example 260]            5.52
 9  CNC(=O)c1nc[nH]c1C(=O)Nc1ccc(NC(=O)c2ccc(C)cc2Cl)cc1 [Example 244]            7.40
10  CN1CCN(CCNC(=O)c2[nH]cnc2C(=O)Nc2ccc(NC(=O)c3ccccc3Cl)cc2)CC1 [Example 160]            7.10

(1) CNC(=O)c1nc[nH]c1C(=O)Nc1ccc(NC(=O)c2ccccc2Cl)c(F)c1 [Example 80]
(2) CC(C)(CN1CCOCC1)NC(=O)c1[nH]cnc1C(=O)Nc1ccc(NC(=O)c2ccc(F)cc2)cc1 [Example 180]
Input: Would you kindly point out which of 1 and 2 has the smaller pIC50 figure? Lab note: record the label of whichever item you select.
Output: 2

(I) O=C(Nc1ccc(NC(=O)c2[nH]cnc2C(=O)NCCc2ccccc2)cc1)c1ccc(F)cc1Cl [Example 384]
(II) CCNC(=O)c1nc[nH]c1C(=O)Nc1ccc(NC(=O)c2cnccc2Cl)cc1 [Example 263]
(III) CN(C)CCNC(=O)c1nc[nH]c1C(=O)Nc1ccc(NC(=O)c2ccccc2Cl)nc1 [Example 113]
Input: Returns the items ordered by pIC50, from maximum to minimum. Could you list the labels in the order requested?
Output: III, II, I
(III: 7.70, II: 6.52, I: 5.82)

(I) CN(C)CCNC(=O)c1[nH]cnc1C(=O)Nc1ccc(NC(=O)c2ccc(F)cc2Br)cc1 [Example 217]
(II) O=C(Nc1ccc(NC(=O)c2[nH]cnc2C(=O)N2CC3(COC3)C2)cc1)c1cc(F)c(F)cc1Cl [Example 52]
Input: Could you please tell me which of these two has the higher pIC50: I or II ? # answer = label of selected item
Output: I
(I: 8.00, II: 7.52)

(I) C[C@@H]1CCCCN1CCNC(=O)c1[nH]cnc1C(=O)Nc1ccc(NC(=O)c2ccc(F)cc2Cl)cc1 [Example 267]
(II) CNC(=O)c1nc[nH]c1C(=O)Nc1ccc(NC(=O)c2ccc(Cl)cc2Cl)cc1 [Example 9]
Input: Looking at I and II , which one comes out lower in pIC50 terms? Provide the label of your selected option as the answer.
Output: II
(II: 6.82, I: 8.15)
